tested on: RET (human), P07949 [V804M]; experiment: KINOMEscan competition binding; details: compound 10.0 µM
Sequence (P07949 whole entry V804M, looked up): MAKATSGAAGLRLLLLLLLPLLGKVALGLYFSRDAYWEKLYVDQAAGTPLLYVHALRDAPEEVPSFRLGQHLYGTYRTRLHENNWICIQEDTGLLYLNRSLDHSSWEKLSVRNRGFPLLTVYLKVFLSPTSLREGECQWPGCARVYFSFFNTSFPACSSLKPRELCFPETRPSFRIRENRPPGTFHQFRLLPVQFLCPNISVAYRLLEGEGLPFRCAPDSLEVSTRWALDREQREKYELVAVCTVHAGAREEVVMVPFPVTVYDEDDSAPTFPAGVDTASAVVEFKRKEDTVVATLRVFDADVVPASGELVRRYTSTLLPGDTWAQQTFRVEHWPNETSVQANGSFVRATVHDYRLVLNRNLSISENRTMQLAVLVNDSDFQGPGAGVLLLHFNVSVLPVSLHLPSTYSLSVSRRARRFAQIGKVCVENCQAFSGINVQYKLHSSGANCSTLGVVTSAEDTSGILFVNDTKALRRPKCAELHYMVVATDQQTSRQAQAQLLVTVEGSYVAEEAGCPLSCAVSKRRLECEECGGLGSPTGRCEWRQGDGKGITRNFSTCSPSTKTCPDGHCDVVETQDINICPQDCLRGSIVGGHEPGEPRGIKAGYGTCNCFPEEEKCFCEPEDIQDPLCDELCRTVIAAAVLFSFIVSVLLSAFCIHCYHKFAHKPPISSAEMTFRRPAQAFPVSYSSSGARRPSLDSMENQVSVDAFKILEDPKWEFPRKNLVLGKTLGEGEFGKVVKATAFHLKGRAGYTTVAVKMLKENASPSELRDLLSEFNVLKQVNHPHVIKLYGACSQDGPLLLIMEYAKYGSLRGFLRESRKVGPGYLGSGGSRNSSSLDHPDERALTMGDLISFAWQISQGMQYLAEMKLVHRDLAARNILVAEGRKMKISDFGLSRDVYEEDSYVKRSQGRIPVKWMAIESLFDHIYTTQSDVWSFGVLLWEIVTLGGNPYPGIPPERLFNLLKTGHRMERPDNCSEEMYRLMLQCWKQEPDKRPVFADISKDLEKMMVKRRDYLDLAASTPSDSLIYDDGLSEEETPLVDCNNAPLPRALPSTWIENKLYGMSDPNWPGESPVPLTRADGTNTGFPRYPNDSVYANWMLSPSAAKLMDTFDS
Measurement label: kinase still bound, per cent of control (%)
Please state the figure in %; there is no need to write the unit.

Problem: For the compound COc1cc(C(=O)NC2CCN(C)CC2)ccc1Nc1ncc2c(n1)N(C1CCCC1)C(C)CC(=O)N2C (centres undefined) , what kinase still bound, per cent of control is on record?
Solution: 100

Problem: Try `Cc1ccc(NC(=O)c2cccc(C(C)(C)C#N)c2)cc1Nc1ccc2ncn(C)c(=O)c2c1` next.
Solution: 0.15

Problem: Try `Cc1cn(-c2cc(C(=O)Nc3ccc(C)c(NC(=O)c4ccno4)c3)cc(C(F)(F)F)c2)cn1` next.
Solution: 100

Problem: Try `CNC(=O)Nc1ccc(-c2nc(N3CC4CCC(C3)O4)c3cnn(C4CCC5(CC4)OCCO5)c3n2)cc1` next.
Solution: 100

Problem: Try `OCCCNc1cc(-c2ccnc(Nc3cccc(Cl)c3)n2)ccn1` next.
Solution: 100

Problem: Try `COc1cc2ncnc(Nc3cccc(Cl)c3)c2cc1OC` next.
Solution: 94

Problem: Try `O=C(Nc1cccc(Nc2ncc(Br)c(NCCc3cnc[nH]3)n2)c1)N1CCCC1` next.
Solution: 0.05

Problem: Try `C=CC(=O)Nc1cc(-n2c(=O)ccc3cnc4ccc(-c5cn[nH]c5)cc4c32)ccc1C` next.
Solution: 68

Problem: Try `Cc1n[nH]c2ccc(-c3cncc(OC[C@@H](N)Cc4c[nH]c5ccccc45)c3)cc12` next.
Solution: 10

----------
So I've got a bunch of compounds here, and I need their kinase still bound, per cent of control values.
molecular target: UniProt:Q9UEE5; experiment: KINOMEscan competition binding; details: compound 10.0 µM
Sequence (Q9UEE5 whole entry, looked up): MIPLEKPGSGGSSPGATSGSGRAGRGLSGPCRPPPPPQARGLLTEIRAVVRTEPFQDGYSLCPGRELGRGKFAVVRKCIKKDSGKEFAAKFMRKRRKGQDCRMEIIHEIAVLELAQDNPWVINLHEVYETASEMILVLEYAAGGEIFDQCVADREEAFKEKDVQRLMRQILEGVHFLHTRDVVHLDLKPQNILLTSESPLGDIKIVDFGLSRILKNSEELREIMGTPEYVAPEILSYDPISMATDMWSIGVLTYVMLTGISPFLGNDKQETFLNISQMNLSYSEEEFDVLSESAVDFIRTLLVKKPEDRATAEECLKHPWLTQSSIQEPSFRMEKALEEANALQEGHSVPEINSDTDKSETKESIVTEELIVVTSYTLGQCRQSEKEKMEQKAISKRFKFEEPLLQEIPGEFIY
Please state the figure in %; there is no need to write the unit.

Problem: For the compound `CN(C)C/C=C/C(=O)Nc1ccc(C(=O)Nc2cccc(Nc3nccc(-c4cccnc4)n3)c2)cc1` , what kinase still bound, per cent of control is on record?
Solution: 6.4

Problem: Try `COc1cc(N2CCN(C)CC2)ccc1Nc1ncc2c(n1)N(C)c1ccccc1C(=O)N2C` next.
Solution: 100

Problem: Try `C[C@@H](Oc1cc(-c2cnn(C3CCNCC3)c2)cnc1N)c1c(Cl)ccc(F)c1Cl` next.
Solution: 100

Problem: Try `COc1cc2ncn(-c3cc(OCc4ccccc4C(F)(F)F)c(C(N)=O)s3)c2cc1OC` next.
Solution: 100

Problem: Try `CS(=O)(=O)N1CCN(Cc2cc3nc(-c4cccc5[nH]ncc45)nc(N4CCOCC4)c3s2)CC1` next.
Solution: 100

Problem: Try `CNC(=O)c1ccc(Nc2cc(Nc3ccccc3S(=O)(=O)C(C)C)c3cc[nH]c3n2)nc1` next.
Solution: 100

Problem: Try `NC(=O)Nc1cc(-c2cccc(F)c2)sc1C(=O)N[C@@H]1CCCNC1` next.
Solution: 0.55

Problem: Try `CCN(CC)CCCCNc1ncc2cc(-c3cc(OC)cc(OC)c3)c(NC(=O)NC(C)(C)C)nc2n1` next.
Solution: 100

Problem: Try `COCC(=O)NC/C=C/c1ccc2ncnc(Nc3ccc(Oc4ccc(C)nc4)c(C)c3)c2c1` next.
Solution: 84

Problem: Try `CNC(=O)c1cc(Oc2ccc(NC(=O)Nc3ccc(Cl)c(C(F)(F)F)c3)cc2)ccn1` next.
Solution: 45

Problem: Try `N#CCNC(=O)c1ccc(-c2ccnc(Nc3ccc(N4CCOCC4)cc3)n2)cc1` next.
Solution: 0.2

Problem: Try `O=C(Nc1cccc(Nc2ncc(Br)c(NCCc3cnc[nH]3)n2)c1)N1CCCC1` next.
Solution: 0.2

Problem: Try `COc1cc(C(=O)N2CCC(N3CCN(C)CC3)CC2)ccc1Nc1ncc2c(n1)N(C)c1ccccc1C(=O)N2C` next.
Solution: 100

Problem: Try `C=CC(=O)Nc1cc(-n2c(=O)ccc3cnc4ccc(-c5cn[nH]c5)cc4c32)ccc1C` next.
Solution: 100

Problem: Try `CCN1CCN(C(=O)Cc2ccc(Nc3ncc(F)c(Nc4ccc(C(=O)Nc5ccccc5Cl)cc4)n3)cc2)CC1` next.
Solution: 2.6

Problem: Try `O=C1NC(=O)/C(=C/c2ccc3nccc(-c4ccncc4)c3c2)S1` next.
Solution: 0.2

Problem: Try `CCN(CC)CCCCNc1ncc2c(n1)N(C)C(=O)N(c1c(Cl)c(OC)cc(OC)c1Cl)C2` next.
Solution: 100
